Origin of the recorded values: ChEMBL document CHEMBL3734724

system: MCF7; assay: Cytotoxicity against human MCF7 cells assessed as growth inhibition at 20 uM after 48 hrs by MTT assay relative to control; format: functional; details: MCF7, 48 h, read-out: GI
// condition not met strictly below 10% in inhibition of growth at 20 µM; condition met otherwise

Prompt line: Exam item: decide whether the reported inhibition of growth at 20 µM for Clc1ccc2[nH]cc(C(c3ccc(C(c4c[nH]c5ccc(Cl)cc45)c4c[nH]c5ccc(Cl)cc45)nc3)c3c[nH]c4ccc(Cl)cc34)c2c1 is at least 10%.
Response line: condition met

Prompt line: Exam item: decide whether the reported inhibition of growth at 20 µM for COc1ccc2[nH]cc(C(c3ccc(C(c4c[nH]c5ccc(OC)cc45)c4c[nH]c5ccc(OC)cc45)nc3)c3c[nH]c4ccc(OC)cc34)c2c1 is at least 10%.
Response line: condition met

Prompt line: Exam item: decide whether the reported inhibition of growth at 20 µM for c1cc(C(c2c[nH]c3ccccc23)c2c[nH]c3ccccc23)nc(C(c2c[nH]c3ccccc23)c2c[nH]c3ccccc23)c1 is at least 10%.
Response line: condition met

Prompt line: Exam item: decide whether the reported inhibition of growth at 20 µM for Brc1ccc2[nH]cc(C(c3ccc(C(c4c[nH]c5ccc(Br)cc45)c4c[nH]c5ccc(Br)cc45)nc3)c3c[nH]c4ccc(Br)cc34)c2c1 is at least 10%.
Response line: condition not met

Prompt line: Exam item: decide whether the reported inhibition of growth at 20 µM for c1ccc2c(C(c3ccc(C(c4c[nH]c5ccccc45)c4c[nH]c5ccccc45)nc3)c3c[nH]c4ccccc34)c[nH]c2c1 is at least 10%.
Response line: condition met

Prompt line: Exam item: decide whether the reported inhibition of growth at 20 µM for Oc1ccc2c(C(c3ccc(C(c4c[nH]c5cc(O)ccc45)c4c[nH]c5cc(O)ccc45)nc3)c3c[nH]c4cc(O)ccc34)c[nH]c2c1 is at least 10%.
Response line: condition not met

Prompt line: Exam item: decide whether the reported inhibition of growth at 20 µM for N#Cc1ccc2[nH]cc(C(c3cccc(C(c4c[nH]c5ccc(C#N)cc45)c4c[nH]c5ccc(C#N)cc45)n3)c3c[nH]c4ccc(C#N)cc34)c2c1 is at least 10%.
Response line: condition met

Prompt line: Exam item: decide whether the reported inhibition of growth at 20 µM for Clc1ccc2[nH]cc(C(c3cccc(C(c4c[nH]c5ccc(Cl)cc45)c4c[nH]c5ccc(Cl)cc45)n3)c3c[nH]c4ccc(Cl)cc34)c2c1 is at least 10%.
Response line: condition met

Prompt line: Exam item: decide whether the reported inhibition of growth at 20 µM for c1ccc(COc2ccc3[nH]cc(C(c4cccc(C(c5c[nH]c6ccc(OCc7ccccc7)cc56)c5c[nH]c6ccc(OCc7ccccc7)cc56)n4)c4c[nH]c5ccc(OCc6ccccc6)cc45)c3c2)cc1 is at least 10%.
Response line: condition not met

Prompt line: Exam item: decide whether the reported inhibition of growth at 20 µM for COc1ccc2[nH]cc(C(c3cccc(C(c4c[nH]c5ccc(OC)cc45)c4c[nH]c5ccc(OC)cc45)n3)c3c[nH]c4ccc(OC)cc34)c2c1 is at least 10%.
Response line: condition not met

Prompt line: Exam item: decide whether the reported inhibition of growth at 20 µM for N#Cc1ccc2[nH]cc(C(c3ccc(C(c4c[nH]c5ccc(C#N)cc45)c4c[nH]c5ccc(C#N)cc45)nc3)c3c[nH]c4ccc(C#N)cc34)c2c1 is at least 10%.
Response line: condition not met

Prompt line: Exam item: decide whether the reported inhibition of growth at 20 µM for Brc1ccc2[nH]cc(C(c3cccc(C(c4c[nH]c5ccc(Br)cc45)c4c[nH]c5ccc(Br)cc45)n3)c3c[nH]c4ccc(Br)cc34)c2c1 is at least 10%.
Response line: condition not met

Prompt line: Exam item: decide whether the reported inhibition of growth at 20 µM for Oc1ccc2[nH]cc(C(c3cccc(C(c4c[nH]c5ccc(O)cc45)c4c[nH]c5ccc(O)cc45)n3)c3c[nH]c4ccc(O)cc34)c2c1 is at least 10%.
Response line: condition met

====

Give measured pIC50 for each item. Keep answers brief.
experiment: Cytotoxicity against human M10 cells assessed as growth inhibition after 48 hrs by MTT assay; format: cell-based; details: M10, 48 h
pIC50: −log10 of the molar value.

Prompt line: Field request: pIC50 | item: Clc1ccc2[nH]cc(C(c3cccc(C(c4c[nH]c5ccc(Cl)cc45)c4c[nH]c5ccc(Cl)cc45)n3)c3c[nH]c4ccc(Cl)cc34)c2c1
Response line: < 4.70

Prompt line: Field request: pIC50 | item: Oc1ccc2[nH]cc(C(c3cccc(C(c4c[nH]c5ccc(O)cc45)c4c[nH]c5ccc(O)cc45)n3)c3c[nH]c4ccc(O)cc34)c2c1
Response line: < 4.70

Prompt line: Field request: pIC50 | item: Clc1ccc2[nH]cc(C(c3ccc(C(c4c[nH]c5ccc(Cl)cc45)c4c[nH]c5ccc(Cl)cc45)nc3)c3c[nH]c4ccc(Cl)cc34)c2c1
Response line: < 4.70

Prompt line: Field request: pIC50 | item: N#Cc1ccc2[nH]cc(C(c3ccc(C(c4c[nH]c5ccc(C#N)cc45)c4c[nH]c5ccc(C#N)cc45)nc3)c3c[nH]c4ccc(C#N)cc34)c2c1
Response line: < 4.70

Prompt line: Field request: pIC50 | item: COc1ccc2[nH]cc(C(c3cccc(C(c4c[nH]c5ccc(OC)cc45)c4c[nH]c5ccc(OC)cc45)n3)c3c[nH]c4ccc(OC)cc34)c2c1
Response line: < 4.70

Prompt line: Field request: pIC50 | item: c1ccc(COc2ccc3[nH]cc(C(c4cccc(C(c5c[nH]c6ccc(OCc7ccccc7)cc56)c5c[nH]c6ccc(OCc7ccccc7)cc56)n4)c4c[nH]c5ccc(OCc6ccccc6)cc45)c3c2)cc1
Response line: < 4.70

Prompt line: Field request: pIC50 | item: Fc1ccc2[nH]cc(C(c3cccc(C(c4c[nH]c5ccc(F)cc45)c4c[nH]c5ccc(F)cc45)n3)c3c[nH]c4ccc(F)cc34)c2c1
Response line: 4.92

Prompt line: Field request: pIC50 | item: Oc1ccc2c(C(c3ccc(C(c4c[nH]c5cc(O)ccc45)c4c[nH]c5cc(O)ccc45)nc3)c3c[nH]c4cc(O)ccc34)c[nH]c2c1
Response line: < 4.70

Prompt line: Field request: pIC50 | item: c1cc(C(c2c[nH]c3ccccc23)c2c[nH]c3ccccc23)nc(C(c2c[nH]c3ccccc23)c2c[nH]c3ccccc23)c1
Response line: < 4.70

Prompt line: Field request: pIC50 | item: c1ccc2c(C(c3ccc(C(c4c[nH]c5ccccc45)c4c[nH]c5ccccc45)nc3)c3c[nH]c4ccccc34)c[nH]c2c1
Response line: < 4.70

====

experiment: Cytotoxicity against human Hs578T cells assessed as growth inhibition after 48 hrs by MTT assay; type: functional, cell-based; conditions: Hs-578T
metric: IC50

Prompt line: Field request: IC50 | item: Oc1ccc2[nH]cc(C(c3cccc(C(c4c[nH]c5ccc(O)cc45)c4c[nH]c5ccc(O)cc45)n3)c3c[nH]c4ccc(O)cc34)c2c1
Response line: > 20 µM

Prompt line: Field request: IC50 | item: Fc1ccc2[nH]cc(C(c3cccc(C(c4c[nH]c5ccc(F)cc45)c4c[nH]c5ccc(F)cc45)n3)c3c[nH]c4ccc(F)cc34)c2c1
Response line: 8.9 µM

Prompt line: Field request: IC50 | item: Fc1ccc2[nH]cc(C(c3ccc(C(c4c[nH]c5ccc(F)cc45)c4c[nH]c5ccc(F)cc45)nc3)c3c[nH]c4ccc(F)cc34)c2c1
Response line: 17 µM

Prompt line: Field request: IC50 | item: N#Cc1ccc2[nH]cc(C(c3cccc(C(c4c[nH]c5ccc(C#N)cc45)c4c[nH]c5ccc(C#N)cc45)n3)c3c[nH]c4ccc(C#N)cc34)c2c1
Response line: > 20 µM

Prompt line: Field request: IC50 | item: N#Cc1ccc2[nH]cc(C(c3ccc(C(c4c[nH]c5ccc(C#N)cc45)c4c[nH]c5ccc(C#N)cc45)nc3)c3c[nH]c4ccc(C#N)cc34)c2c1
Response line: > 20 µM

Prompt line: Field request: IC50 | item: Oc1ccc2c(C(c3ccc(C(c4c[nH]c5cc(O)ccc45)c4c[nH]c5cc(O)ccc45)nc3)c3c[nH]c4cc(O)ccc34)c[nH]c2c1
Response line: > 20 µM

Prompt line: Field request: IC50 | item: Brc1ccc2[nH]cc(C(c3cccc(C(c4c[nH]c5ccc(Br)cc45)c4c[nH]c5ccc(Br)cc45)n3)c3c[nH]c4ccc(Br)cc34)c2c1
Response line: > 20 µM

Prompt line: Field request: IC50 | item: COc1ccc2[nH]cc(C(c3ccc(C(c4c[nH]c5ccc(OC)cc45)c4c[nH]c5ccc(OC)cc45)nc3)c3c[nH]c4ccc(OC)cc34)c2c1
Response line: > 20 µM

Prompt line: Field request: IC50 | item: c1ccc2c(C(c3ccc(C(c4c[nH]c5ccccc45)c4c[nH]c5ccccc45)nc3)c3c[nH]c4ccccc34)c[nH]c2c1
Response line: 9 µM

Prompt line: Field request: IC50 | item: Clc1ccc2[nH]cc(C(c3cccc(C(c4c[nH]c5ccc(Cl)cc45)c4c[nH]c5ccc(Cl)cc45)n3)c3c[nH]c4ccc(Cl)cc34)c2c1
Response line: > 20 µM

Prompt line: Field request: IC50 | item: Clc1ccc2[nH]cc(C(c3ccc(C(c4c[nH]c5ccc(Cl)cc45)c4c[nH]c5ccc(Cl)cc45)nc3)c3c[nH]c4ccc(Cl)cc34)c2c1
Response line: > 20 µM

Prompt line: Field request: IC50 | item: Oc1ccc2[nH]cc(C(c3ccc(C(c4c[nH]c5ccc(O)cc45)c4c[nH]c5ccc(O)cc45)nc3)c3c[nH]c4ccc(O)cc34)c2c1
Response line: > 20 µM

Prompt line: Field request: IC50 | item: COc1ccc2[nH]cc(C(c3cccc(C(c4c[nH]c5ccc(OC)cc45)c4c[nH]c5ccc(OC)cc45)n3)c3c[nH]c4ccc(OC)cc34)c2c1
Response line: > 20 µM

Prompt line: Field request: IC50 | item: c1ccc(COc2ccc3[nH]cc(C(c4cccc(C(c5c[nH]c6ccc(OCc7ccccc7)cc56)c5c[nH]c6ccc(OCc7ccccc7)cc56)n4)c4c[nH]c5ccc(OCc6ccccc6)cc45)c3c2)cc1
Response line: > 20 µM

Prompt line: Field request: IC50 | item: Brc1ccc2[nH]cc(C(c3ccc(C(c4c[nH]c5ccc(Br)cc45)c4c[nH]c5ccc(Br)cc45)nc3)c3c[nH]c4ccc(Br)cc34)c2c1
Response line: > 20 µM

Prompt line: Field request: IC50 | item: c1cc(C(c2c[nH]c3ccccc23)c2c[nH]c3ccccc23)nc(C(c2c[nH]c3ccccc23)c2c[nH]c3ccccc23)c1
Response line: > 20 µM
